inhibition values for the molecules below.
- Study target: Mucosa-associated lymphoid tissue lymphoma translocation protein 1 (Homo sapiens)
- Test name: Inhibition of MALT1 (unknown origin) at 25 uM relative to control
Write the answer as a number in %, unit excluded.

Illustrative cases are given below, each with its answer.
Compound structure: CNC(=O)c1cc(-c2ccc(Cl)cc2)n(C)n1
inhibition [%]: 7.7
//
Compound structure: CNC(=O)c1cc(-c2ccc(Cl)cc2)n(-c2ccccc2)n1
inhibition [%]: 59
//
Compound structure: CNC(=O)c1cc(-c2ccccc2Cl)n(-c2ccc(Cl)cc2)n1
inhibition [%]: 23
//
Compound structure: CNC(=O)c1cc(-c2ccc(Cl)cc2)n(Cc2ccccc2)n1
inhibition [%]: 57

Okay, next one:
QUERY: If you can, please state the reported inhibition value of "CNC(=O)c1cc(-c2ccc(OC)nc2)n(-c2ccc(Cl)cc2)n1" .
RESULT: 21

###

- Study target: UniProtKB Q9UDY8
- Sequence (whole entry): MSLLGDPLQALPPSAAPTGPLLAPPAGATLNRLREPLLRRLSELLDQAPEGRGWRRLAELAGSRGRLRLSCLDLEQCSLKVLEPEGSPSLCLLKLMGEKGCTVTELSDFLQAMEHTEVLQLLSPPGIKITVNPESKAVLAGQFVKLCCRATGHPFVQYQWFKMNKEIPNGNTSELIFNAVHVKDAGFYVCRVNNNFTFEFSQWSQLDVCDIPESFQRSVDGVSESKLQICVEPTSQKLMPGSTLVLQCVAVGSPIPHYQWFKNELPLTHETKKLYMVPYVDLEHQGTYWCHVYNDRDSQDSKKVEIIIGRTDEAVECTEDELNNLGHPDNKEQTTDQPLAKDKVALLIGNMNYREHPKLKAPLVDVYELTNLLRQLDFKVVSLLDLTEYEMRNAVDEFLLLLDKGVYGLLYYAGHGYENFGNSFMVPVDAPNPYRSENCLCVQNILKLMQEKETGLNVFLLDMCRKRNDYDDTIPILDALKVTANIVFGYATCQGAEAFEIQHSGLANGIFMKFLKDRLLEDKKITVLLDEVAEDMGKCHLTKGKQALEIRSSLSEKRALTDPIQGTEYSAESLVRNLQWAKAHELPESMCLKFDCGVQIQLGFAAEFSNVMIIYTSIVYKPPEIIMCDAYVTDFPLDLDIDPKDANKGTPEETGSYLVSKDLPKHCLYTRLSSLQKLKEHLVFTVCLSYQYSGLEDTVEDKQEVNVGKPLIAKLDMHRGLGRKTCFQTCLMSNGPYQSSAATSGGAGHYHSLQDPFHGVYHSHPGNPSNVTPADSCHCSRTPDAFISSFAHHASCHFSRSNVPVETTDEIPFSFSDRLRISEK
- Test name: Inhibition of MALT1 (unknown origin) at 25 uM relative to control
Result type: inhibition (%)
Field format: number, assumed %, no unit text.

Field: example entries. Status: answers known.
Compound structure: CNC(=O)c1cc(-c2ccc(OC)cc2)n(-c2ccc(Cl)cc2)n1
Units symbol: %
Reported measurement: 80

Compound structure: CNC(=O)c1cc(-c2ccccc2)n(-c2ccc(Cl)cc2)n1
Units symbol: %
Reported measurement: 61

Next molecule, please.
QUERY: Look at this molecule and give its reported inhibition. "CNC(=O)c1cc(-c2ccc(Cl)cc2)n(-c2cccc(Cl)c2)n1"
RESULT: 57

###

Each entry below lists one item and its recorded pIC50 value.
- Study target: Mucosa-associated lymphoid tissue lymphoma translocation protein 1 (Homo sapiens, UniProt Q9UDY8)
- Sequence (Q9UDY8 whole entry): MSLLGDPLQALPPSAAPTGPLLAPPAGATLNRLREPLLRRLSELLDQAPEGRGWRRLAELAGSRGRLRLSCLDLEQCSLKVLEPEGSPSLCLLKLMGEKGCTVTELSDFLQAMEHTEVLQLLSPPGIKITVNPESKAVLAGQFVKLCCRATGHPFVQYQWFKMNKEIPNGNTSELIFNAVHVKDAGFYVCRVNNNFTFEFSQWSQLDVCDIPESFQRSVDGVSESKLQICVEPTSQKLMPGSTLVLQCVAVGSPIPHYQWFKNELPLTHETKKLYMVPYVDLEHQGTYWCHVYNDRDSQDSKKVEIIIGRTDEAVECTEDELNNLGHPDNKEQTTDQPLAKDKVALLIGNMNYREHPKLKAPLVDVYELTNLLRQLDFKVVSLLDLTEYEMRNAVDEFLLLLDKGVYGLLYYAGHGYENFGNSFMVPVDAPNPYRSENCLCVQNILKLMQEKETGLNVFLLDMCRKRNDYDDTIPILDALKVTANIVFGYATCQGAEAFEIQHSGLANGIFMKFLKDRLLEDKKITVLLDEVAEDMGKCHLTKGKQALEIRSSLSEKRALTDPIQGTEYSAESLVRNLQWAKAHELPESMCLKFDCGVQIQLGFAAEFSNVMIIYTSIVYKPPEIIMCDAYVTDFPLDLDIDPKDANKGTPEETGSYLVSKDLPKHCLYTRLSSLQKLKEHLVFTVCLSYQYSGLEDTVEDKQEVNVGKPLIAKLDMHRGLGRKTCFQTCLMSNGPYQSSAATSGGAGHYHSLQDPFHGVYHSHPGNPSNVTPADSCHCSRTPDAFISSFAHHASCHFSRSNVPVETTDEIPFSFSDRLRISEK
pIC50: −log10 of the molar value.

Compound structure: O=C(c1cc(-c2ccc(Cl)cc2)n(-c2ccc(Cl)cc2)n1)N1CCCC1
pIC50: < 4.60
//
Compound structure: CNC(=O)c1cc(-c2ccc(F)cc2)n(-c2ccc(Cl)cc2)n1
pIC50: < 4.60

Note: attention shifts to another entry.
QUERY: State the recorded pIC50 for this entry: "CNC(=O)c1cc(-c2ccoc2)n(-c2ccc(Cl)cc2)n1"
RESULT: < 4.60

Just for reference, ChEMBL document CHEMBL4814035 is where these values come from.
